target: human NAMPT (Homo sapiens (Human), UniProt P43490); experiment: NMN fluorescence biochemical assay (human recombinant NAMPT enzyme assay)
Sequence (P43490 whole entry): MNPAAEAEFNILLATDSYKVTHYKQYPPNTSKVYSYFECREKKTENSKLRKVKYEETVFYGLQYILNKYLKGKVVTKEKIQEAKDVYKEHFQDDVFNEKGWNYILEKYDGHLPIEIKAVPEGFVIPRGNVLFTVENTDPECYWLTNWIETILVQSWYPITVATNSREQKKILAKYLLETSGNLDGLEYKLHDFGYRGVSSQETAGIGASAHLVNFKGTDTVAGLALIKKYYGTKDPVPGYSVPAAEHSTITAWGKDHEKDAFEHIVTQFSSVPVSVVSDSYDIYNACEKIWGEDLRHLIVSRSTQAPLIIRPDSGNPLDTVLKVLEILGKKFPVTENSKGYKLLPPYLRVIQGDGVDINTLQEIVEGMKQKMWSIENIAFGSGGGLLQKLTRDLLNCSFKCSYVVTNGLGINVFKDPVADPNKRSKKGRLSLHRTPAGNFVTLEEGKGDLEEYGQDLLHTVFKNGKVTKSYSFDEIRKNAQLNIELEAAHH
Listing of recorded AC1.4 Human by entry.

compound | AC1.4 Human
CN(Cc1ccc(NC(=O)OCc2ccc(Cl)cc2)cc1)C(=O)c1cn[nH]c1 | 0.44 µM
CC(C)Cn1nccc1C(=O)N[C@@H](C)c1ccc(NC(=O)OCc2ccc(Cl)cc2)cc1 | 1.03 µM
CCS(=O)(=O)N1CC2(CC(Cc3ccc(NC(=O)OCc4cnco4)cc3F)C2)C1 | 0.14 µM
Cc1noc(C(=O)N[C@@H](C)c2ccc(NC(=O)OCc3ccc(Cl)cc3)cc2)c1C | 0.48 µM
CC(=O)N1CCOC(c2ccc(NC(=O)OCc3ccc(Cl)cc3)cc2)C1 (stereo not shown) | 3.56 µM
COC1CCN(C(=O)N(C)Cc2ccc(NC(=O)OCc3ccc(Cl)cc3)cc2)CC1 | 0.44 µM
COc1ccc(COC(=O)Nc2ccc([C@H]3CNC(=O)CN3C)cc2)cc1 | 2.92 µM
CN(C1COC1)S(=O)(=O)c1ccc(NC(=O)OCc2ccc(Cl)cc2)cc1 | 22.88 µM
Cc1ccc(S(=O)(=O)NCc2ccc(NC(=O)OCc3ccc(Cl)cc3)cc2)cn1 | 29.04 µM
Cc1cc(C(=O)N[C@@H](C)c2ccc(NC(=O)OCc3ccc(Cl)cc3)cc2)n(C)n1 | 1.11 µM
Cc1ccc(Cc2ccc(NC(=O)OCc3ccc(C(F)F)cc3)cc2)cn1 | 8.56 µM
CC(=O)N1CCC(CCc2ccc(NC(=O)OCc3cnco3)cc2)CC1 | 0.35 µM
CC(=O)N1CC2(CC(c3ccc(NC(=O)OCc4cnco4)cc3)C2)C1 | 0.25 µM
O=C(Nc1ccc(CC2CCN(CC3CCO3)CC2)cc1)OCc1cnco1 (stereo not shown) | 0.50 µM
CN1CC(=O)NC[C@@H]1c1ccc(NC(=O)OCc2ccc(Cl)cc2)cc1 | 0.51 µM
CS(=O)(=O)N1CCN(Cc2ccc(NC(=O)OCc3ccc(Cl)cc3)cc2)CC1 | 0.89 µM
O=C(Nc1ccc(CNC(=O)c2cccnn2)cc1)OCc1ccc(Cl)cc1 | 2.51 µM
COc1cc(C(=O)NCc2ccc(NC(=O)OCc3ccc(Cl)cc3)cc2)n(C)n1 | 1.11 µM
CC(=O)N1CCC(Cc2ccc(NC(=O)OCc3cnco3)cc2)C2CC21 (stereo not shown) | 0.250 µM
CC(C)c1ccc(C(=O)NCc2ccc(NC(=O)OCc3ccc(Cl)cc3)cc2)cn1 | 2.19 µM
O=C(Nc1ccc(CC(=O)N2CCC[C@@H](O)C2)cc1)OCc1ccc(Cl)cc1 | 2.25 µM
Cc1ccc(N(C)C(=O)Cc2ccc(NC(=O)OCc3ccc(Cl)cc3)cc2)cn1 | 2.93 µM
Cc1ncoc1C(=O)N[C@@H](C)c1ccc(NC(=O)OCc2ccc(Cl)cc2)cc1 | 1.27 µM
Cc1ccc(C(=O)NCc2ccc(NC(=O)OCc3cn[nH]c3)cc2)cn1 | 0.15 µM
COC(=O)N1CCC(c2ccc(NC(=O)OCc3cnco3)cc2)CC1 | 1.23 µM
CC(=O)N1CC2(CC(Cc3ccc(NC(=O)OCc4cnco4)cc3F)C2)C1 | 0.11 µM
NC(=O)c1ccc(COC(=O)Nc2ccc(Cc3ccncc3)cc2)cc1 | 0.23 µM
CN(Cc1ccc(NC(=O)OCc2ccc(Cl)cc2)cc1)C(=O)c1cn[nH]c1F | 0.59 µM
O=C(Nc1ccc(CC2C3CC2CN(C2COC2)C3)cc1)OCc1cnco1 (stereo not shown) | 1.47 µM
CC(C)n1nccc1C(=O)N(C)Cc1ccc(NC(=O)OCc2ccc(Cl)cc2)cc1 | 1.05 µM
COC(=O)N1CCC(Cc2ccc(NC(=O)OCc3cnco3)cc2F)CC1 | 0.13 µM
CN(C)C(=O)N1CCC(c2ccc(NC(=O)OCc3cnco3)cc2)CC1 | 0.06 µM
CC1CCN(C(=O)N[C@@H](C)c2ccc(NC(=O)OCc3ccc(Cl)cc3)cc2)CC1 | 1.19 µM
O=C(Cc1ccc(NC(=O)OCc2ccc(Cl)cc2)cc1)N[C@H]1CC[C@H](OC(F)(F)F)CC1 | 10.44 µM
